measured on: BRM (Homo sapiens, UniProt P51531)
Sequence (P51531 whole entry): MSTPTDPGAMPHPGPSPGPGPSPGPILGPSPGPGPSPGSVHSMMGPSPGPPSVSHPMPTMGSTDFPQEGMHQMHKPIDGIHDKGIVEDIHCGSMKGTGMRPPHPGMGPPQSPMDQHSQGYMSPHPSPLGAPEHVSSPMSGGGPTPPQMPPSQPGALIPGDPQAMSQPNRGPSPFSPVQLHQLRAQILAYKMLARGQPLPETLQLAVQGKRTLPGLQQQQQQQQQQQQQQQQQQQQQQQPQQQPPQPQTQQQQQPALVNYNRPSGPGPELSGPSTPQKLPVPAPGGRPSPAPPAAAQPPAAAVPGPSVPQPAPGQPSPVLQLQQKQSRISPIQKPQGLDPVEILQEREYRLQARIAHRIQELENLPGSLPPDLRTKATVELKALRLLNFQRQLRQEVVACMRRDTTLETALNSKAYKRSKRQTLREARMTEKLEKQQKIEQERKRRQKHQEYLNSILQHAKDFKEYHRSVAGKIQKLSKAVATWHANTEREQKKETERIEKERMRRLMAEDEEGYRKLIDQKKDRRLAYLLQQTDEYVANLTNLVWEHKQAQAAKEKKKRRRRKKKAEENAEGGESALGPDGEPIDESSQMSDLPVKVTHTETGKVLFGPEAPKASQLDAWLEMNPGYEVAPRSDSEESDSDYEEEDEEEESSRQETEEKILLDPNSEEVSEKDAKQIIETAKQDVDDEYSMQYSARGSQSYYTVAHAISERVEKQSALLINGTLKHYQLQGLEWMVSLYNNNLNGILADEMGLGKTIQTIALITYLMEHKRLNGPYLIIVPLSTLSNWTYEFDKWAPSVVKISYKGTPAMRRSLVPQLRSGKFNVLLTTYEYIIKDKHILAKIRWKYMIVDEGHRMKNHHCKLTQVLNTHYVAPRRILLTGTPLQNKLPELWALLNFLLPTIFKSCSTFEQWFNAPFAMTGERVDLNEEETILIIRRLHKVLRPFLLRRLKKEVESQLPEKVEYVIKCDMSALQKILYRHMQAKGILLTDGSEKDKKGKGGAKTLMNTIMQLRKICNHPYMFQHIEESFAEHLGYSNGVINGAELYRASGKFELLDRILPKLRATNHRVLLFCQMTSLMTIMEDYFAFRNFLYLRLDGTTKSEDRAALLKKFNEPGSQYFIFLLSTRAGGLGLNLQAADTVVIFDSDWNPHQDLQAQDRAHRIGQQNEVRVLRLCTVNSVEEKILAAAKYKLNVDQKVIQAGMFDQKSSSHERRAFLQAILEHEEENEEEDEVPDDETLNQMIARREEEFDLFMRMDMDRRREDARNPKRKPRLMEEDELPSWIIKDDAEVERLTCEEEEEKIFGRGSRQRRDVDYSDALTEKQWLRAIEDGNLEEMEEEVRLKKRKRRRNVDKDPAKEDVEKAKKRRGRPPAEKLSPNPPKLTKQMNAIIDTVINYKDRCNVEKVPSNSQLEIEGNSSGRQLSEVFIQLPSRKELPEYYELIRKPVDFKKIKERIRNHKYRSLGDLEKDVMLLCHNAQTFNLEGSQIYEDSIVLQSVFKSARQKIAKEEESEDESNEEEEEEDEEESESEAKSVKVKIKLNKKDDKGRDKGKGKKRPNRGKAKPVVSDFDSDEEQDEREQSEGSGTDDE
protocol: ATPase catalytic activity assay of BRM (ADP-Glo)
Type: biochemical
condition: read-out: BRM IC50 (μM)*
Assignment: determine reported IC50 for the given compounds.

1. Cc1nccc(-c2cccc(-c3csc(NC(=O)CNC(=O)c4ccc5c(c4)[C@@](C)(CO)CCC5)n3)n2)n1 : 0.1 to 1 µM
2. CC(C)(CN)c1cccc(C(=O)NCC(=O)Nc2nc(-c3cccc(-c4ccnc(C(F)(F)F)c4)c3)cs2)c1 : 0.1 to 1 µM
3. C[C@@H]1CN(c2cccc(-c3csc(NC(=O)CNC(=O)c4cccc([C@H]5COC[C@@H]5O)c4)n3)c2)C[C@H](C)O1 : 0.1 to 1 µM

Reported IC50 for Cc1cc(-c2cccc(-c3csc(NC(=O)CNC(=O)c4cccc(S(=O)(=O)C(C)CN)c4)n3)c2)cc(C)n1 (stereo not shown) was < 0.1 µM

The origin of these recorded values is patent US12685735B2.
